Origin of values: PubChem BioAssay AID1963974

Reported values of IC50 for individual entries
test system: 648629-189-R-J1-PDC spheroids with HUVEC/MSC, viability; assay: Anticancer human tumor 648629-189-R-J1-PDC patient-derived bladder carcinoma cell line growth inhibition [PI3K]; settings: curve of first compound; second compound 0.00316 µM;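 note: spheroids exposed to agents for seven days before reading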

Past entries and their recorded results:
>  <COMPOUND>
CC(Cn1ccc(-c2ccc(C#N)c(Cl)c2)n1)NC(=O)c1cc(C(C)O)[nH]n1 (stereo not drawn) + COc1c(OCCCN2CCOCC2)ccc2c3n(c(=NC(=O)c4cnc(N)nc4)nc12)CCN3

>  <ASSAY_TARGET>
648629-189-R-J1-PDC spheroids with HUVEC/MSC, viability;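 note: spheroids exposed to agents for seven days before reading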

>  <IC50>
> 10 µM

$$$$
>  <COMPOUND>
Cn1nccc1Nc1nccc(-c2ccn(C(CO)c3ccc(Cl)c(F)c3)c(=O)c2)n1 (stereo not drawn) + CC(Nc1ccc2c(c1)OCCn1cc(N3C(=O)OCC3C(F)F)nc1-2)C(N)=O

>  <ASSAY_TARGET>
648629-189-R-J1-PDC spheroids with HUVEC/MSC, viability;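 note: spheroids exposed to agents for seven days before reading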

>  <IC50>
> 10 µM

$$$$

Kindly review the next compound as well.
Name the recorded IC50 for CC(=O)c1c(C)c2cnc(Nc3ccc(N4CCNCC4)cn3)nc2n(C2CCCC2)c1=O + COc1c(OCCCN2CCOCC2)ccc2c3n(c(=NC(=O)c4cnc(N)nc4)nc12)CCN3 .
> 0.1 µM
